# system_tested: RIOK2 (Homo sapiens, UniProt Q9BVS4)
# Sequence (Q9BVS4 whole entry): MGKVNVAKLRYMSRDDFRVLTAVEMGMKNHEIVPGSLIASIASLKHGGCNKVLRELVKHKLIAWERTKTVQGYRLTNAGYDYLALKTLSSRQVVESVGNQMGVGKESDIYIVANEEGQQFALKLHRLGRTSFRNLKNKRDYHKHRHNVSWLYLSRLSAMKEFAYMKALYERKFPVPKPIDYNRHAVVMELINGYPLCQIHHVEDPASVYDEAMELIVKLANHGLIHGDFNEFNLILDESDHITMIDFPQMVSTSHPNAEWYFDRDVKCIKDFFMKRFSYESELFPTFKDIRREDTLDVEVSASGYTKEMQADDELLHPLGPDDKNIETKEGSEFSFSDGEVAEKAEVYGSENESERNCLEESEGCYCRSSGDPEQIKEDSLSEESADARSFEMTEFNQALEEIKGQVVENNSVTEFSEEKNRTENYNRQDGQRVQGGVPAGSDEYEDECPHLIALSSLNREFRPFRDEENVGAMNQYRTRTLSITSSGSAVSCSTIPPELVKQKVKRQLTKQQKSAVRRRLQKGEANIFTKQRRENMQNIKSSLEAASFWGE
# measurement_description: biochemical
# Parameters: species or system HEK293/K-562/placenta mixed human extract; Kinobeads chemoproteomic competition binding, quantified by TMT LC-MS/MS, dose response up to 20 uM
pIC50: −log10 of the molar value.
parameter_measured: pIC50

// pIC50 lookup, molecule = `COc1ccccc1-c1n[nH]c2nc(N[C@H]3CC[C@H](NS(=O)(=O)CCC(F)(F)F)CC3)nc(OC)c12` , result: ≤ 4.70

---

# system_tested: FGR (Homo sapiens)
# Sequence (P09769 whole entry): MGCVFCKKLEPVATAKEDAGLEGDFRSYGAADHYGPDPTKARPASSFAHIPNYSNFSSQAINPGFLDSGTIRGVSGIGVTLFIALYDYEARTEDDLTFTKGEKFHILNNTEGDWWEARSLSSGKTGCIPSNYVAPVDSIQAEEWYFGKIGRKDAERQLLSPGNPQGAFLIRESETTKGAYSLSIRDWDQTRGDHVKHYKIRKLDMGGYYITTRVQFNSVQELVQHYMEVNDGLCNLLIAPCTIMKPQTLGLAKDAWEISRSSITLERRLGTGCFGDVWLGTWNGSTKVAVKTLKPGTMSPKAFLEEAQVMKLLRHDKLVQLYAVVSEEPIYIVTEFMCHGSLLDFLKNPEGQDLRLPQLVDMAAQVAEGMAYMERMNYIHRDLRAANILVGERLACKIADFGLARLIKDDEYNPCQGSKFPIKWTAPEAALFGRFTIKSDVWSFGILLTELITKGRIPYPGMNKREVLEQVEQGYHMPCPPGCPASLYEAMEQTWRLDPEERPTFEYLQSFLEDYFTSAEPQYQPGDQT
# measurement_description: biochemical
# Set-up: species or system HEK293/K-562/placenta mixed human extract; Kinobeads chemoproteomic competition binding, quantified by TMT LC-MS/MS, dose response up to 20 uM
pIC50: −log10 of the molar value.
parameter_measured: pIC50

// pIC50 lookup, compound = `COc1nc(N[C@H]2CC[C@H](NS(=O)(=O)CC(C)C)CC2)nc2[nH]nc(N3CCOC[C@H]3C)c12` , result: ≤ 4.70
